Exercise: for every item that follows, state its recorded IC50.
Target: ALK kinase (Homo sapiens, UniProt Q9UM73)
Sequence (Q9UM73 19-1620): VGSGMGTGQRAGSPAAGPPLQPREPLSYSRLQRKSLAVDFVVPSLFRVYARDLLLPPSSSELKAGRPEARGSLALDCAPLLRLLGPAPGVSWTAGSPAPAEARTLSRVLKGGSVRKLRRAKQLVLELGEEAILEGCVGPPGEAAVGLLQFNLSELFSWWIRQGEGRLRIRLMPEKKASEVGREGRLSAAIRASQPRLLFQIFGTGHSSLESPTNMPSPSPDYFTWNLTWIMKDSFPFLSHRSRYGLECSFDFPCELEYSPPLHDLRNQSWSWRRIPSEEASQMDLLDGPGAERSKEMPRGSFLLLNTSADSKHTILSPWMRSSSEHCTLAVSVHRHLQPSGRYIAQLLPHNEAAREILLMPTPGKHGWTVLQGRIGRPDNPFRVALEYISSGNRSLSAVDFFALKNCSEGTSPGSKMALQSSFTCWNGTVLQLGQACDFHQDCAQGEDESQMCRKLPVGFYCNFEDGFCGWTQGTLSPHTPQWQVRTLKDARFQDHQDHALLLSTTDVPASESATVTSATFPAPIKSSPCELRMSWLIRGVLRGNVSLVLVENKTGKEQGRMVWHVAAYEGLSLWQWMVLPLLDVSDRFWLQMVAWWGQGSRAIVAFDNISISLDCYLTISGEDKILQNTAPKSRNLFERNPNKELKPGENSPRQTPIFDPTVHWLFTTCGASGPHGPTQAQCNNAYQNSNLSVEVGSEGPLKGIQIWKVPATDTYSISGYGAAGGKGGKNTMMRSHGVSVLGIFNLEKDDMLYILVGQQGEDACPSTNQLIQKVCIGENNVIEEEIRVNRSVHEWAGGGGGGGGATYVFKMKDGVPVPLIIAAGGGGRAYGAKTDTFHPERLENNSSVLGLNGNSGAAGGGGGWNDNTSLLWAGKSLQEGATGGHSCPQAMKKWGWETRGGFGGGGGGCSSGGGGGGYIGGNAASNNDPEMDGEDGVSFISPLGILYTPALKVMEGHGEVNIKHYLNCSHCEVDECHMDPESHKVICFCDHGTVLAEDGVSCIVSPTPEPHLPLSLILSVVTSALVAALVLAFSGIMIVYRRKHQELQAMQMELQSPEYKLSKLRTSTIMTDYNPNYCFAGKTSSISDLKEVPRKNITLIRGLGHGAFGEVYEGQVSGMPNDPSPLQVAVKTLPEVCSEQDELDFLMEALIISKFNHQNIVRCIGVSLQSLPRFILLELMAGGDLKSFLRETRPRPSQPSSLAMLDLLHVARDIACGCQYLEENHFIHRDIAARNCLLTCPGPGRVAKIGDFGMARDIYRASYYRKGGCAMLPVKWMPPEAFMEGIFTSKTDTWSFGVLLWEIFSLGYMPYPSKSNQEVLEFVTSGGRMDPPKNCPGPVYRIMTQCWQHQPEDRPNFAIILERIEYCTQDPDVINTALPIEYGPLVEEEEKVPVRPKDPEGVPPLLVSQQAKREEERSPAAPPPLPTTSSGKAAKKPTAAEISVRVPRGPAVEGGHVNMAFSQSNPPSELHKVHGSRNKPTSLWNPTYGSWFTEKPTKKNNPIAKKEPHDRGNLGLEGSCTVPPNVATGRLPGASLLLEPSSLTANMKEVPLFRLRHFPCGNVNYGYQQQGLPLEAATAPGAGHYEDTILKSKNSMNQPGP
Assay: Test to measure ALK kinase inhibition (GST-PLCγ1 substrate, anti-phosphotyrosine ELISA, luminescence)
Format: biochemical
Details: ALK kinase 180 ng/ml, 250 μM ATP, 30 minutes at 30° C.

Give its IC50 value. Item: N#Cc1c(-c2ccc(O)cc2F)nc2[nH]nc(N)c2c1-c1ccc(C2CCNCC2)cc1 [Compound 195]
< 100 nM

Give its IC50 value. Item: Cc1n[nH]c2nc(-c3ccc(O)cc3F)c(C#N)c(C3C[C@@H]3C(=O)N3CCNCC3)c12 (some centres unmarked) [Compound 146]
100 to 1000 nM

Give its IC50 value. Item: N#Cc1c(-c2ccc(O)cc2)nc2[nH]ncc2c1-c1ccc(CCCN)o1 [Compound 289]
< 100 nM

Give its IC50 value. Item: N#Cc1c(-c2ccc(O)cc2F)nc2[nH]ncc2c1-c1ccc(N2CCNCC2)cc1 [Compound 91]
< 100 nM

Give its IC50 value. Item: Cc1n[nH]c2nc(-c3ccc(O)cc3F)c(C#N)c(-c3ccc(S(=O)(=O)O)o3)c12 [Compound 137]
100 to 1000 nM

Give its IC50 value. Item: N#Cc1c(-c2ccc(O)cc2)nc2[nH]ncc2c1-c1ccc(OCCN2CCOCC2)cc1 [Compound 73]
100 to 1000 nM

Give its IC50 value. Item: Cc1n[nH]c2nc(-c3cc(Cl)ccc3F)c(C#N)c(-c3ccc(N4CCNCC4)cc3)c12 [Compound 217]
1000 to 10000 nM

Give its IC50 value. Item: Cc1cc(-c2nc3[nH]nc(-c4cccs4)c3c(-c3ccc(N4CCNCC4)cc3)c2C#N)cc(C)c1O [Compound 283]
100 to 1000 nM

* * *

Exercise: for every item that follows, state its recorded IC50.

Find IC50 (ALK kinase (Homo sapiens, UniProt Q9UM73)) for the entry Cc1n[nH]c2nc(-c3ccc(O)cc3)c(C#N)c(-c3ccc(-c4ccc(N)cc4)o3)c12
100 to 1000 nM

Find IC50 (ALK kinase (Homo sapiens, UniProt Q9UM73)) for the entry Cc1n[nH]c2nc(-c3c(F)cc(O)cc3F)c(C#N)c(-c3ccc(N4CC[C@@H](N)C4)o3)c12
< 100 nM

Find IC50 (ALK kinase (Homo sapiens, UniProt Q9UM73)) for the entry CN1CCN(Cc2ccc(-c3c(C#N)c(-c4ccc(O)cc4F)nc4[nH]ncc34)o2)CC1
100 to 1000 nM

Find IC50 (ALK kinase (Homo sapiens, UniProt Q9UM73)) for the entry N#Cc1c(-c2ccc(OC(=O)c3ccccc3)cc2F)nc2[nH]nc(N)c2c1-c1ccc(N2CCNCC2)cc1
1000 to 10000 nM

Find IC50 (ALK kinase (Homo sapiens, UniProt Q9UM73)) for the entry N#Cc1c(-c2ccc(O)c(F)c2)cc2[nH]ncc2c1-c1ccco1
100 to 1000 nM

Find IC50 (ALK kinase (Homo sapiens, UniProt Q9UM73)) for the entry Cc1n[nH]c2nc(-c3ccc(O)cc3F)c(C#N)c(-c3ccc(N4CC[C@@H](O)C4)o3)c12
< 100 nM

Find IC50 (ALK kinase (Homo sapiens, UniProt Q9UM73)) for the entry Cc1ccc(-c2c(C#N)c(-c3ccc(O)cc3F)nc3[nH]ncc23)o1
< 100 nM

Find IC50 (ALK kinase (Homo sapiens, UniProt Q9UM73)) for the entry N#Cc1c(-c2ccc(O)cc2F)nc2[nH]nc(N)c2c1-c1ccc(N2CCNCC2)cc1
< 100 nM

Find IC50 (ALK kinase (Homo sapiens, UniProt Q9UM73)) for the entry COc1cc(-c2cc3[nH]ncc3c(-c3ccco3)c2C#N)ccc1O
100 to 1000 nM

Find IC50 (ALK kinase (Homo sapiens, UniProt Q9UM73)) for the entry Cc1n[nH]c2nc(-c3ccc(O)cc3F)c(C#N)c(-c3ccc(OCCCN(C)C)cc3)c12
< 100 nM

Find IC50 (ALK kinase (Homo sapiens, UniProt Q9UM73)) for the entry N#Cc1c(-c2ccc(O)cc2F)nc2[nH]nc(-c3ccco3)c2c1-c1ccc(N2CCNCC2)cc1
< 100 nM

Find IC50 (ALK kinase (Homo sapiens, UniProt Q9UM73)) for the entry N#Cc1c(-c2ccc(O)cc2F)nc2[nH]nc(N)c2c1-c1ccc(OCCCN2CCNCC2)cc1
100 to 1000 nM

Find IC50 (ALK kinase (Homo sapiens, UniProt Q9UM73)) for the entry N#Cc1c(-c2ccc(O)cc2)nc2[nH]ncc2c1-c1ccc(N2CCNCC2)cc1
100 to 1000 nM

Find IC50 (ALK kinase (Homo sapiens, UniProt Q9UM73)) for the entry N#Cc1c(-c2ccc(CCl)cc2)nc2[nH]nc(-c3ccc(C(F)(F)F)cc3)c2c1-c1ccc(N2CCNCC2)cc1
1000 to 10000 nM

Find IC50 (ALK kinase (Homo sapiens, UniProt Q9UM73)) for the entry Cc1n[nH]c2nc(-c3ccc(O)cc3F)c(C#N)c(-c3ccc(N4CCN(C)CC4)s3)c12
< 100 nM

Find IC50 (ALK kinase (Homo sapiens, UniProt Q9UM73)) for the entry N#Cc1c(-c2ccc(O)cc2)nc2[nH]ncc2c1-c1ccc(Cn2ccnc2)cc1
1000 to 10000 nM

Find IC50 (ALK kinase (Homo sapiens, UniProt Q9UM73)) for the entry Cc1n[nH]c2nc(-c3c(F)ccc(F)c3F)c(C#N)c(-c3ccc(N4CCC(N)CC4)o3)c12
100 to 1000 nM

Find IC50 (ALK kinase (Homo sapiens, UniProt Q9UM73)) for the entry N#Cc1c(-c2ccc(O)cc2)nc2[nH]ncc2c1-c1nccs1
100 to 1000 nM

Find IC50 (ALK kinase (Homo sapiens, UniProt Q9UM73)) for the entry Cc1n[nH]c2nc(-c3c(F)ccc(Cl)c3F)c(C#N)c(-c3ccc(N4CCNCC4)cc3)c12
100 to 1000 nM

Find IC50 (ALK kinase (Homo sapiens, UniProt Q9UM73)) for the entry CN(C)CCOc1ccc(-c2c(C#N)c(-c3ccc(O)cc3F)nc3[nH]nc(N)c23)cc1
100 to 1000 nM

Find IC50 (ALK kinase (Homo sapiens, UniProt Q9UM73)) for the entry Cc1n[nH]c2nc(-c3ccc(NS(C)(=O)=O)cc3F)c(C#N)c(-c3ccc(N4CCNCC4)cc3)c12
1000 to 10000 nM

Find IC50 (ALK kinase (Homo sapiens, UniProt Q9UM73)) for the entry Cc1n[nH]c2nc(-c3ccc(O)cc3F)c(C#N)c(-c3ccc(N4CCC(N5CCCC5)CC4)o3)c12
< 100 nM

Find IC50 (ALK kinase (Homo sapiens, UniProt Q9UM73)) for the entry CCOC(=O)c1c(-c2ccc(O)cc2)nc2[nH]nc(C)c2c1-c1ccc(C)o1
< 100 nM

Find IC50 (ALK kinase (Homo sapiens, UniProt Q9UM73)) for the entry N#Cc1c(-c2ccc(O)cc2)nc2[nH]ncc2c1-c1ccoc1
100 to 1000 nM

Find IC50 (ALK kinase (Homo sapiens, UniProt Q9UM73)) for the entry Cc1n[nH]c2nc(-c3ccc(O)cc3F)c(C#N)c(-c3ccc(N4CCNCC4)c(N)c3)c12
100 to 1000 nM

Find IC50 (ALK kinase (Homo sapiens, UniProt Q9UM73)) for the entry N#Cc1c(-c2ccc(O)cc2F)nc2[nH]ncc2c1-c1ccc(CO)o1
100 to 1000 nM

Find IC50 (ALK kinase (Homo sapiens, UniProt Q9UM73)) for the entry N#Cc1c(-c2cncs2)nc2[nH]nc(-c3ccco3)c2c1-c1ccc(N2CCNCC2)cc1
< 100 nM

Find IC50 (ALK kinase (Homo sapiens, UniProt Q9UM73)) for the entry COc1cc(-c2c(C#N)c(-c3ccc(O)cc3F)nc3[nH]nc(N)c23)ccc1N1CCNCC1
100 to 1000 nM

Find IC50 (ALK kinase (Homo sapiens, UniProt Q9UM73)) for the entry Cc1c(C#N)c(-c2ccc(O)cc2F)nc2[nH]nc(-c3ccc(N4CCN(C)CC4)nc3)c12
100 to 1000 nM

Find IC50 (ALK kinase (Homo sapiens, UniProt Q9UM73)) for the entry Cc1n[nH]c2cc(-c3ccc(O)cc3F)c(C#N)c(-c3ccco3)c12
< 100 nM

Find IC50 (ALK kinase (Homo sapiens, UniProt Q9UM73)) for the entry CCOC(=O)c1c(-c2c(F)ccc(F)c2F)nc2[nH]nc(-c3cccs3)c2c1-c1ccc(N2CCNCC2)cc1
100 to 1000 nM

* * *

Exercise: for every item that follows, state its recorded pIC50.
Target: ALK kinase (Homo sapiens)
pIC50: −log10 of the molar value.

Give its pIC50 value. Item: CN1CCN(c2ccc(-c3c(C#N)c(-c4ccc(O)cc4F)nc4[nH]nc(N)c34)o2)CC1
> 7.00

Give its pIC50 value. Item: N#Cc1c(-c2ccc(O)cc2F)nc2[nH]nc(N)c2c1-c1ccc(-c2ccc(S(N)(=O)=O)cc2)o1
6.00 to 7.00

Give its pIC50 value. Item: Cc1n[nH]c2nc(Cc3ccc(F)cc3F)c(C#N)c(-c3ccc(N4CCNCC4)cc3F)c12
< 5.00

Give its pIC50 value. Item: N#Cc1c(-c2ccc(O)cc2F)nc2[nH]nc(N)c2c1-c1ccc(C2=CCNCC2)cc1
> 7.00

Give its pIC50 value. Item: Cc1n[nH]c2nc(-c3ccc(O)cc3F)c(C#N)c(-c3cnc(N4CCN(C)CC4)s3)c12
6.00 to 7.00

Give its pIC50 value. Item: Cc1n[nH]c2nc(-c3ccc(O)cc3F)c(C#N)c(-c3ccc(N4CCC(N(C)C)C4)o3)c12 (stereo not drawn)
> 7.00

Give its pIC50 value. Item: Cc1n[nH]c2nc(-c3ccc(O)c(Cl)c3)c(C#N)c(-c3ccc(N4CCNCC4)cc3)c12
> 7.00

Give its pIC50 value. Item: CC(=O)Oc1ccc(-c2nc3[nH]nc(-c4cccs4)c3c(-c3ccc(N4CCNCC4)cc3)c2C#N)c(F)c1
6.00 to 7.00

Give its pIC50 value. Item: N#Cc1c(-c2ccc(O)cc2F)nc2[nH]nc(-c3ccc(F)cc3)c2c1-c1ccc(N2CCNCC2)cc1
> 7.00
